SYSTEM_UNDER_TEST: adenosine A2B receptor (Homo sapiens (Human))
Sequence (P29275 whole entry): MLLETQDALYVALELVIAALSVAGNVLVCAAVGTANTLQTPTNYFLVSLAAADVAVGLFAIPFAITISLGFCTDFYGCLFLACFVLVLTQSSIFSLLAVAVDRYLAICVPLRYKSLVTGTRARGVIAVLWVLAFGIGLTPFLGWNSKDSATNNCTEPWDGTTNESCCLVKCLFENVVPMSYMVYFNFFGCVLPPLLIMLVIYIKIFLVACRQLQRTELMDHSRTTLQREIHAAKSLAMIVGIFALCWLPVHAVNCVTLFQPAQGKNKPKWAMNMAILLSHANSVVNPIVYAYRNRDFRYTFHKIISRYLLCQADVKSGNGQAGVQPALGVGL
PROTOCOL_NOTES: Radioligand binding competition assay, adenosine A2B receptor (HEK-293-A2b cell membranes)
CONDITION_PARAMETERS: 300 nM compound
REPORTED_ENDPOINT: Radioligand binding competition assay % residual binding @ 300 nM (A2b) (%)

Example molecules with recorded Radioligand binding competition assay % residual binding @ 300 nM (A2b):
STRUCTURE_AS_SMILES	UNIT_OF_MEASURE	RESULT
O=c1cc[nH]c2nc(-c3ccccc3)c(-c3ccc(O)c(Cl)c3)cc12	%	0
O=c1cc[nH]c2nc(-c3ccco3)c(-c3ccc4ncccc4c3)cc12	%	0

(P) O=c1cc[nH]c2nc(-c3ccccc3)c(-c3ccc4[nH]cnc4c3)cc12
(Q) O=c1ccc2cc(-c3ccc(O)c(Cl)c3)c(-c3ccccc3)nc2[nH]1
(R) O=c1cc[nH]c2nc(-c3ccccc3)c(-c3ccc4ncccc4c3)cc12
Challenge: # ascending order, key=Radioligand binding competition assay % residual binding @ 300 nM (A2b) Form entry: labels listed in requested order.
Response given: P, R, Q

----------
SYSTEM_UNDER_TEST: adenosine A2A receptor (Homo sapiens (Human), UniProt P29274)
Sequence (P29274 whole entry): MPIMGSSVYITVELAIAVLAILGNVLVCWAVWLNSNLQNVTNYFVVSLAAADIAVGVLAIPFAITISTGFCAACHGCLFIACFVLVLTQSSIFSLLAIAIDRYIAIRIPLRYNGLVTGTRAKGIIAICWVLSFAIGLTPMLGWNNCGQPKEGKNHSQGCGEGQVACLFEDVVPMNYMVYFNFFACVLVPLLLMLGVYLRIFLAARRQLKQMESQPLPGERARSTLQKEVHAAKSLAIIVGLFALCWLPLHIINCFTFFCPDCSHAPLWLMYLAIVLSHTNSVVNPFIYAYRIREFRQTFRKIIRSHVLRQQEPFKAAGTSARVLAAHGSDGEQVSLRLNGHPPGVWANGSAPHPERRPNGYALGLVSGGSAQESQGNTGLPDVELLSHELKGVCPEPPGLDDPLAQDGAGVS
PROTOCOL_NOTES: cAMP assay in HEK-293 cells expressing human recombinant adenosine A2A receptor
Assay type: cell-based
CONDITION_PARAMETERS: HEK293; 100 nM compound; read-out: A2a cAMP % inh @ 100 nM
REPORTED_ENDPOINT: inhibition at 0.1 µM (%)

Example compounds with recorded inhibition at 0.1 µM:
COMPOUND	RESULT
O=c1ccc2cc(-c3cc(Cl)c4[nH]cnc4c3)c(-c3ccccc3)nc2[nH]1 [Compound No. 1.19]	74
Cc1cc(-c2cc3c(=O)cc[nH]c3nc2-c2ccccc2)cc2cccnc12 [Compound No. 1.23]	77
Cc1ccc(-c2nc3[nH]c(=O)ccc3cc2-c2ccc3ncccc3c2)o1 [Compound No. 1.29]	77

(P) O=c1ccc2cc(-c3ccc4ncccc4c3)c(-c3ccccc3)nc2[nH]1 [1.4]
(Q) O=c1cc[nH]c2nc(-c3ccccc3)c(-c3ccc4nccnc4c3)cc12 [Compound No. 1.15]
(R) O=c1cc[nH]c2nc(-c3ccccc3)c(-c3ccc4cnccc4c3)cc12 [Compound No. 1.9]
Challenge: # ascending order, key=inhibition at 0.1 µM Form entry: labels listed in requested order.
Response given: R, Q, P

----------
SYSTEM_UNDER_TEST: adenosine A2A receptor (Homo sapiens (Human), UniProt P29274)
PROTOCOL_NOTES: cAMP assay in HEK-293 cells expressing human recombinant adenosine A2A receptor
Type: cell-based
CONDITION_PARAMETERS: HEK293; 100 nM compound; read-out: A2a cAMP % inh @ 100 nM
REPORTED_ENDPOINT: inhibition at 0.1 µM (%)

COMPOUND	UNIT_OF_MEASURE	inhibition at 0.1 µM
O=c1ccc2cc(-c3cc(Cl)c4ncccc4c3)c(-c3ccccc3)nc2[nH]1 [Compound No. 1.12]	%	100
O=c1ccc2cc(-c3ccc4nccnc4c3)c(-c3ccccc3)nc2[nH]1 [Compound No. 1.10]	%	40
COc1cc(-c2cc3c(=O)cc[nH]c3nc2-c2ccccc2)cc2cccnc12 [Compound No. 1.26]	%	64
O=c1cc[nH]c2nc(-c3ccccc3)c(-c3ccc4[nH]cnc4c3)cc12 [Compound No. 1.7]	%	81
O=c1cc[nH]c2nc(-c3ccncc3)c(-c3ccc4ncccc4c3)cc12 [Compound No. 1.18]	%	61
O=c1cc[nH]c2nc(-c3ccco3)c(-c3ccc4[nH]cnc4c3)cc12 [Compound No. 1.27]	%	88

(1) Cc1cc(-c2cc3c(=O)cc[nH]c3nc2-c2ccccc2)cc(C)n1 [1.3]
(2) Cn1cnc2cc(-c3cc4c(=O)cc[nH]c4nc3-c3ccccc3)ccc21 [Compound No. 1.22]
Challenge: Parameter metric = inhibition at 0.1 µM. Return the lower-valued option from 1 and 2 . State your choice using its label.
Response given: 2

----------
SYSTEM_UNDER_TEST: adenosine A2A receptor (Homo sapiens (Human), UniProt P29274)
PROTOCOL_NOTES: cAMP assay in HEK-293 cells expressing human recombinant adenosine A2A receptor
Type: cell-based
CONDITION_PARAMETERS: first cAMP table
REPORTED_ENDPOINT: IC50 (µM)

(A) O=c1cc[nH]c2nc(-c3ccccc3)c(-c3ccc4ncccc4c3)cc12
(B) O=c1ccc2cc(-c3ccc(O)c(Cl)c3)c(-c3ccccc3)nc2[nH]1
Challenge: Parameter metric = IC50. Return the lower-valued option from A and B . State your choice using its label.
Response given: A
(A: 0.023 µM, B: 0.061 µM)

(a) Cc1ccc(-c2nc3[nH]ccc(=O)c3cc2-c2ccc3ncccc3c2)o1
(b) O=c1cc[nH]c2nc(-c3ccccc3)c(-c3cc(Cl)c4ncccc4c3)cc12
Challenge: Between a and b , whose measured IC50 reads higher? State your choice using its label.
Response given: b
(b: 0.0477 µM, a: 0.0188 µM)

----------
SYSTEM_UNDER_TEST: UniProt:P30542
Sequence (P30542 whole entry): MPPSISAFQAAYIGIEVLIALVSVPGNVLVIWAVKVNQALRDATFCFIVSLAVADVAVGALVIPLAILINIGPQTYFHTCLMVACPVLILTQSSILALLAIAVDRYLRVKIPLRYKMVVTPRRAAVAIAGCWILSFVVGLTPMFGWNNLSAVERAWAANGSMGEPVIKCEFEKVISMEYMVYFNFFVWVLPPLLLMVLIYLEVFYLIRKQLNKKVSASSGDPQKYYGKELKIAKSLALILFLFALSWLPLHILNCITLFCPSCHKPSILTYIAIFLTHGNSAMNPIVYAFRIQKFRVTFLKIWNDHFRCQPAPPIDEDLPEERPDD
PROTOCOL_NOTES: Radioligand binding competition assay, adenosine A1 receptor (CHO-K1-A1 cell membranes)
CONDITION_PARAMETERS: 300 nM compound
REPORTED_ENDPOINT: Radioligand binding competition assay % residual binding @ 300 nM (A1) (%)

Example compounds with recorded Radioligand binding competition assay % residual binding @ 300 nM (A1):
STRUCTURE_AS_SMILES	RESULT
O=c1cc[nH]c2nc(-c3ccccc3)c(-c3ccc4[nH]cnc4c3)cc12	7
O=c1ccc2cc(-c3ccc(O)c(Cl)c3)c(-c3ccccc3)nc2[nH]1	1.6
O=c1cc[nH]c2nc(-c3ccco3)c(-c3ccc4ncccc4c3)cc12	13

(1) O=c1cc[nH]c2nc(-c3ccccc3)c(-c3ccc4ncccc4c3)cc12
(2) O=c1cc[nH]c2nc(-c3ccccc3)c(-c3ccc(O)c(Cl)c3)cc12
Challenge: Between 1 and 2 , whose measured Radioligand binding competition assay % residual binding @ 300 nM (A1) reads higher? State your choice using its label.
Response given: 1
(1: 11%, 2: 0%)

----------
SYSTEM_UNDER_TEST: adenosine A2A receptor (Homo sapiens (Human), UniProt P29274)
PROTOCOL_NOTES: Radioligand binding competition assay, adenosine A2A receptor
CONDITION_PARAMETERS: 100 nM compound
REPORTED_ENDPOINT: A2A radioligand binding competition assay % residual binding @ 100 nM (%)

STRUCTURE_AS_SMILES	RESULT
O=c1cc[nH]c2nc(-c3ccccc3)c(-c3ccc4[nH]cnc4c3)cc12	52
O=c1ccc2cc(-c3ccc4ncccc4c3)c(-c3ccccc3)nc2[nH]1	71
O=c1ccc2cc(-c3ccc(O)c(Cl)c3)c(-c3ccccc3)nc2[nH]1	83
O=c1cc[nH]c2nc(-c3ccccc3)c(-c3ccc(O)c(Cl)c3)cc12	77
O=c1cc[nH]c2nc(-c3ccccc3)c(-c3ccc4ncccc4c3)cc12	74

----------
SYSTEM_UNDER_TEST: adenosine A3 receptor (Homo sapiens (Human))
Sequence (P0DMS8 whole entry): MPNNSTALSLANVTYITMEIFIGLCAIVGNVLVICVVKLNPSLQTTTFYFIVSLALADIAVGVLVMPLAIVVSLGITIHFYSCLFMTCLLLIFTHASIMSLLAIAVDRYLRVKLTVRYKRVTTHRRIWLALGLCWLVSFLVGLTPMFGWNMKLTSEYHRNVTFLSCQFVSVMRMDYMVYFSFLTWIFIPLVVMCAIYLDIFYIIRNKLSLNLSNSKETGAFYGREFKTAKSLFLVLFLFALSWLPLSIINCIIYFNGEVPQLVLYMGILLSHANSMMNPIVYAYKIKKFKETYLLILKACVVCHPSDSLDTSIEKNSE
PROTOCOL_NOTES: Radioligand binding competition assay, adenosine A3 receptor (CHO-K1-A3 cell membranes)
CONDITION_PARAMETERS: 300 nM compound
REPORTED_ENDPOINT: Radioligand binding competition assay % residual binding @ 300 nM (A3) (%)

MOLECULE	SYSTEM_UNDER_TEST	RESULT
O=c1cc[nH]c2nc(-c3ccccc3)c(-c3ccc4[nH]cnc4c3)cc12 [Compound No. 1.7]	adenosine A3 receptor (Homo sapiens (Human))	84
O=c1cc[nH]c2nc(-c3ccccc3)c(-c3ccc4ncccc4c3)cc12 [1.5]	adenosine A3 receptor (Homo sapiens (Human))	104
O=c1cc[nH]c2nc(-c3ccco3)c(-c3ccc4ncccc4c3)cc12 [Compound No. 1.14]	adenosine A3 receptor (Homo sapiens (Human))	87
O=c1cc[nH]c2nc(-c3ccccc3)c(-c3ccc(O)c(Cl)c3)cc12 [1.2]	adenosine A3 receptor (Homo sapiens (Human))	83
O=c1ccc2cc(-c3ccc(O)c(Cl)c3)c(-c3ccccc3)nc2[nH]1 [1.1]	adenosine A3 receptor (Homo sapiens (Human))	95

----------
SYSTEM_UNDER_TEST: adenosine A2A receptor (Homo sapiens (Human), UniProt P29274)
PROTOCOL_NOTES: Radioligand binding competition assay, adenosine A2A receptor
CONDITION_PARAMETERS: 3000 nM compound; read-out: A2a binding % inh @ 3000 nM
REPORTED_ENDPOINT: inhibition at 3 µM (%)

Example molecules with recorded inhibition at 3 µM:
STRUCTURE_AS_SMILES	inhibition at 3 µM, %
O=c1cc[nH]c2nc(-n3cccn3)c(-c3ccc4ncccc4c3)cc12	78
Cc1cc(-c2cc3ccc(=O)[nH]c3nc2-c2ccccc2)cc(C)n1	30
Cc1ccc(-c2nc3[nH]ccc(=O)c3cc2-c2ccc3ncsc3c2)o1	85
O=c1ccc2cc(-c3ccncc3)c(-c3ccccc3)nc2[nH]1	30
O=c1cc[nH]c2nc(-c3ccccc3)c(-c3ccc4[nH]ncc4c3)cc12	77

(P) O=c1cc[nH]c2nc(-c3ccccc3)c(-c3ccc4ncncc4c3)cc12
(Q) Cc1cc(Cl)cc(-c2cc3ccc(=O)[nH]c3nc2-c2ccccc2)c1
Challenge: Between P and Q , whose measured inhibition at 3 µM reads higher? State your choice using its label.
Response given: P
(P: 72%, Q: 0%)
